- TARGET: UniProt:P08173
- ASSAY_PROTOCOL: mAChR M4 cell-based functional assay (calcium flux), human M4
- MEASUREMENT_PARAMETERS: Table 10; % ACh maximum at 30 μM
Reported Emax values are given for each entry in this list.
Number in %, nothing else.

SMILES_TEXT: Cc1nnc2sc3c(NCc4ccc(F)c(C(=O)NCC(C)C)c4)ncnc3c2c1C
UNIT: %
VAL: 97.6
--
SMILES_TEXT: Cc1nc2oc3c(NCc4ccc(C(C)(C)O)cc4)ncnc3c2c(C)c1Cl
UNIT: %
VAL: 61.8
--
SMILES_TEXT: Cc1nnc2sc3c(NCc4ccc(F)c(C(=O)NC5CC(F)(F)C5)c4)ncnc3c2c1C
UNIT: %
VAL: 107
--
SMILES_TEXT: Cc1c(Cl)nnc2sc3c(NC4CN(c5ncc(C(F)(F)F)cn5)C4)ncnc3c12
UNIT: %
VAL: 105
--
SMILES_TEXT: Cc1nnc2sc3c(NC4CC5(C4)CN(c4ncc(Cl)cc4Cl)C5)ncnc3c2c1C
UNIT: %
VAL: 48.3
--
SMILES_TEXT: Cc1nnc2sc3c(NC4CN(c5ncc(F)cn5)C4)ncnc3c2c1C
UNIT: %
VAL: 64.9
--
SMILES_TEXT: Cc1nnc2sc3c(NCc4ccc(F)c(C(=O)NC5CCCC5)c4)ncnc3c2c1C
UNIT: %
VAL: 97.1

Below: the item to evaluate.
Problem: Which Emax reading was recorded for the molecule `Cc1c(Cl)cnc2sc3c(NC4CCC4)ncnc3c12` ?
Result: 70

###

- TARGET: UniProtKB P08173
- Sequence (P08173 1-479): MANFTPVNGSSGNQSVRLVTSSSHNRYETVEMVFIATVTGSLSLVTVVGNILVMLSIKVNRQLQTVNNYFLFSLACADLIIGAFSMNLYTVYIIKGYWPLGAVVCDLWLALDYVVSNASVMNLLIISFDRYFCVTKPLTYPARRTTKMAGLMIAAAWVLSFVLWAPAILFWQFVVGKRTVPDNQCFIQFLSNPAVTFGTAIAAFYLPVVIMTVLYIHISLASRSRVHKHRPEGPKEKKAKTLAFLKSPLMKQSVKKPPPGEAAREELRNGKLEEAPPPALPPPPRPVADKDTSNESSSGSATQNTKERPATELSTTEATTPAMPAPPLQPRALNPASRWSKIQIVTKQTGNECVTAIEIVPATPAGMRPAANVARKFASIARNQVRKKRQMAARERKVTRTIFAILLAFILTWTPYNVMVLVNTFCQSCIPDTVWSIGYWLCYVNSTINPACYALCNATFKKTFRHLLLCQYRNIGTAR
- ASSAY_PROTOCOL: mAChR M4 cell-based functional assay (calcium flux), human M4
- MEASUREMENT_PARAMETERS: Human M4 EC50 (nM), Table 10; calcium flux, PAM activity with EC20 acetylcholine
Structures can show the parent of a compound that is named as a salt.
EXPERIMENTAL_READOUT: EC50 (nM)
Number in nM, nothing else.

COMPOUND: Cc1c(Cl)cnc2sc3c(NCc4ccc(S(C)(=O)=O)cc4)ncnc3c12 [Compound 237, dihydrochloride]
VAL: 1320
--
COMPOUND: Cc1nnc2sc3c(NCc4ccc(C(=O)NC5CC(F)C5)cc4)ncnc3c2c1C (centres unmarked)
VAL: 27.7
--
COMPOUND: Cc1nnc2sc3c(NCc4ccc(C(=O)N5CC(F)(F)C5)cc4)ncnc3c2c1C
VAL: 590

Problem: # get_value(readout= EC50, system= UniProtKB P08173) for Cc1nc2oc3c(NC4CC4c4ccc(F)c(F)c4)ncnc3c2c(C)c1Cl (centres unmarked) [Compound 247, hydrochloride]
Result: 7840

###

- TARGET: human mAChR M4 (Homo sapiens, UniProt P08173)
- ASSAY_PROTOCOL: mAChR M4 cell-based functional assay (calcium flux), human M4
EXPERIMENTAL_READOUT: EC50 (nM)
Number in nM, nothing else.

COMPOUND: Cc1nnc2sc3c(NCc4ccc(C(C)(O)CO)cc4)ncnc3c2c1C (centres unmarked)
EXPERIMENTAL_READOUT: EC50
VAL: 69.2

Below: the item to evaluate.
Problem: Which EC50 reading was recorded for the compound `Cc1nnc2sc3c(NC4CN(c5ncc(F)cn5)C4)ncnc3c2c1C` ?
Result: 27.6

###

- TARGET: human mAChR M4 (Homo sapiens, UniProt P08173)
- ASSAY_PROTOCOL: mAChR M4 cell-based functional assay (calcium flux), human M4
- MEASUREMENT_PARAMETERS: Human M4 EC50 (nM), Table 10; calcium flux, PAM activity with EC20 acetylcholine
Counter-ions that a name gives are not always drawn.
EXPERIMENTAL_READOUT: EC50 (nM)
Number in nM, nothing else.

COMPOUND: Cc1cc(C)c2c(n1)sc1c(NCc3ccc(S(C)(=O)=O)cc3)ncnc12
EC50, nM: 294

Problem: Which EC50 reading was recorded for the compound `Cc1nnc2sc3c(NCc4ccc(F)c(C(=O)NC(C)C)c4)ncnc3c2c1C` ?
Result: 748

Problem: Which EC50 reading was recorded for the compound Cc1nnc2sc3c(NCc4ccc(CN5CCOCC5)cc4)ncnc3c2c1C [Compound 108, hydrochloride] ?
Result: 148

Problem: Which EC50 reading was recorded for the compound `Cc1nnc2sc3c(N4CC5(CNC5)C4)ncnc3c2c1C` ?
Result: 627

###

- ASSAY_PROTOCOL: in vivo
- MEASUREMENT_PARAMETERS: cynomolgus monkey, brain
EXPERIMENTAL_READOUT: Kp uu

Problem: Which Kp uu reading was recorded for the molecule `Cc1nnc2sc3c(NCc4ccc(C(C)(C)O)cc4)ncnc3c2c1C` ?
Result: 0.62

###

- TARGET: human mAChR M4 (Homo sapiens, UniProt P08173)
- ASSAY_PROTOCOL: mAChR M4 cell-based functional assay (calcium flux), human M4
- MEASUREMENT_PARAMETERS: Table 10; % ACh maximum at 30 μM
EXPERIMENTAL_READOUT: Emax (%)
Number in %, nothing else.

Problem: Which Emax reading was recorded for the molecule `Cc1nnc2sc3c(NCc4ccc(C(=O)N[C@H](C)C(F)(F)F)cc4)ncnc3c2c1C` ?
Result: 86.1

###

- TARGET: human mAChR M4 (Homo sapiens, UniProt P08173)
- ASSAY_PROTOCOL: mAChR M4 cell-based functional assay (calcium flux), human M4
- MEASUREMENT_PARAMETERS: Table 11; % ACh maximum at 30 μM
Where a name gives a salt, the structure may show the parent alone.
EXPERIMENTAL_READOUT: Emax (%)
Number in %, nothing else.

MOLECULE: Cc1nnc2sc3c(N4CC(Oc5ccc(C#N)nc5)C4)ncnc3c2c1C [Compound 355, dihydrochloride]
UNIT: %
Emax: 49.2

MOLECULE: Cc1cc(C)c(OC2CN(c3ncnc4c3sc3nnc(C)c(C)c34)C2)cn1 [Compound 351, dihydrochloride]
UNIT: %
Emax: 62.1

Problem: # get_value(readout= Emax, system= human mAChR M4 (Homo sapiens, UniProt P08173)) for Cc1cnn(C)c1-c1ccc(CNc2ncnc3c2sc2nnc(C)c(C)c23)cc1 [Compound 342]
Result: 81.5

Problem: # get_value(readout= Emax, system= human mAChR M4 (Homo sapiens, UniProt P08173)) for Cc1cc(O[C@H]2CN(c3ncnc4c3sc3nnc(C)c(C)c34)C[C@@H]2C)ccn1 [Compound 358, dihydrochloride]
Result: 76

Problem: # get_value(readout= Emax, system= human mAChR M4 (Homo sapiens, UniProt P08173)) for Cc1nnc2sc3c(N4CC(Oc5ccnc(Cl)c5)C4)ncnc3c2c1C [Compound 349, dihydrochloride]
Result: 81.2

Problem: # get_value(readout= Emax, system= human mAChR M4 (Homo sapiens, UniProt P08173)) for Cc1cc(O[C@@H]2CCN(c3ncnc4c3sc3nnc(C)c(C)c34)C2)ccn1 [Compound 338]
Result: 74.6

Problem: # get_value(readout= Emax, system= human mAChR M4 (Homo sapiens, UniProt P08173)) for Cc1nnc2sc3c(NC4CN(c5ncc(Cl)cc5F)C4)ncnc3c2c1C [Compound 315]
Result: 74.9

Problem: # get_value(readout= Emax, system= human mAChR M4 (Homo sapiens, UniProt P08173)) for CC(=O)OCc1nnc2sc3c(NCc4ccc(C(C)(C)O)cc4)ncnc3c2c1C [Compound 376]
Result: 59.4

###

- ASSAY_PROTOCOL: solubility (aqueous, faSSIF, SGF)
- Type: physicochemical
- MEASUREMENT_PARAMETERS: aqueous medium (pH 7.4), pH 7.4, aqueous buffer
EXPERIMENTAL_READOUT: solubility

Problem: Which solubility reading was recorded for the molecule `Cc1nnc2sc3c(NCc4ccc(C(C)(C)O)cc4)ncnc3c2c1C` ?
Result: 166 µM

###

- TARGET: human mAChR M4 (Homo sapiens)
- ASSAY_PROTOCOL: mAChR M4 cell-based functional assay (calcium flux), human M4
- MEASUREMENT_PARAMETERS: Table 10; % ACh maximum at 30 μM
Structures can show the parent of a compound that is named as a salt.
EXPERIMENTAL_READOUT: Emax (%)
Number in %, nothing else.

COMPOUND: Cc1c(Cl)cnc2sc3c(NC4CN(c5cc(Cl)ncc5Cl)C4)ncnc3c12
Emax, %: 44.3

Problem: Which Emax reading was recorded for the compound `COCCN1CCN(c2ccc(CNc3ncnc4c3sc3nnc(C)c(C)c34)cc2)CC1` ?
Result: 100

Problem: Which Emax reading was recorded for the compound `COCC1CN(c2ncnc3c2sc2ncc(Cl)c(C)c23)C1` ?
Result: 51.3

Problem: Which Emax reading was recorded for the compound COc1ccc(C2CC2Nc2ncnc3c2sc2nnc(C)c(C)c23)cc1 (stereo not drawn) ?
Result: 86

Problem: Which Emax reading was recorded for the compound `Cc1c(Cl)cnc2sc3c(N4CCCC4)ncnc3c12` ?
Result: 45

Problem: Which Emax reading was recorded for the compound Cc1nnc2sc3c(N4CC(C)(N)C4)ncnc3c2c1C [Compound 98, dihydrochloride] ?
Result: 50.1

Problem: Which Emax reading was recorded for the compound `Cc1nnc2sc3c(NCc4ccc(C(=O)NC5CC6(COC6)C5)cc4)ncnc3c2c1C` ?
Result: 87.2

Problem: Which Emax reading was recorded for the compound `COc1cc(F)c(CNc2ncnc3c2oc2nnc(C)c(C)c23)c(F)c1` ?
Result: 53.2

Problem: Which Emax reading was recorded for the compound `Cc1nc2sc3c(NC4CN(c5ccnc(C6(O)CCC6)c5)C4)ncnc3c2c(C)c1Cl` ?
Result: 72.3

Origin of the recorded values: patent US10239887B2
